Hello, the source for this data is a melting point compilation (Tetko et al.; mined from patent text by program, amines drawn as free bases though some values may be those of a salt), in case you need it.

readout_label: melting point

Previously resolved entries follow.
{"compound": "CCCSC1=NSc2cc(C)cnc2N1Cc1ccc(-c2ccccc2-c2nnn[nH]2)cc1", "recorded_value": "158 to 160 °C"}
{"compound": "Cc1ccc(-c2nc3ccc(CN4CCN(C)CC4)cc3[nH]2)cc1C#Cc1cnc2cccnn12", "recorded_value": "114 to 115 °C"}
{"compound": "O[C@@H](COCc1ccccc1)[C@H](OCc1ccccc1)[C@@H](OCc1ccccc1)[C@@H](O)COCc1ccccc1", "recorded_value": "52.5 to 53 °C"}
{"compound": "Cc1oc(C=Cc2cccc(C(F)(F)F)c2)nc1CCl", "recorded_value": "99 to 100 °C"}
{"compound": "CS(=O)(=O)c1ccc(-c2nn(Cc3ccc(Cl)cc3Cl)c(=O)cc2-c2ccc(F)cc2)cc1", "recorded_value": "212 °C"}
{"compound": "O=C(O)C1Cc2c(ncn2Cc2ccccc2)CN1C(=O)C(c1ccccc1)c1ccccc1 (centres undefined)", "recorded_value": "167 to 169 °C"}
{"compound": "O=c1oc2ccccc2n1Sc1ccc(Cl)cc1", "recorded_value": "134 to 137 °C"}
{"compound": "COc1cnc(CS(C)(=O)=O)nc1OC(=O)NN1CCOCC1", "recorded_value": "138 °C"}

Now take the following compound into account.
Lookup: Look up melting point: CCCCc1nc2c(N)nc3ccccc3c2n1CCCCS(C)(=O)=O
Found: 164 to 165 °C

---

readout_label: melting point

// worked examples, melting point included
{"molecule": "CCOC(=O)c1c(CC)ncnc1NCCc1ccc(CCOS(C)(=O)=O)cc1", "melting point": "84 to 86 °C"}
{"molecule": "NNC1=NS(=O)(=O)c2cc(Cl)ccc21", "melting point": "277 °C"}
{"molecule": "CC(=O)Cc1nc2cc(C)ccc2c(=O)o1", "melting point": "142 to 144 °C"}
{"molecule": "COCCOC[C@H](CC1(C(=O)O)CCCC1)C(=O)Oc1ccc2c(c1)CCC2", "melting point": "111 to 113 °C"}
{"molecule": "CCOC(=O)Cn1c(=S)c2cc(C)ccc2n(Cc2ccc(Cl)c(Cl)c2)c1=O", "melting point": "176 to 177 °C"}
{"molecule": "Cc1c(C(=O)O)cnn1-c1c(Cl)cc(C(F)(F)F)cc1Cl", "melting point": "187 to 189 °C"}

Lookup: Record request: melting point value, item CC(C)(NC(=O)CCNC(=O)c1ccccc1)c1ccccc1
Found: 147 to 148 °C

Lookup: Dear colleague, I am looking for the recorded melting point of the following molecule: Clc1ccc(Cl)c(COC2COC(c3ccccc3)OC2)c1Cl (configuration not stated)
Found: 93.5 to 94 °C

Lookup: Please give the measured melting point for this molecule: C=CCc1oc2c(OC)cccc2c1CC(=O)OC
Found: 65 to 66 °C

Lookup: melting point for O=C1N=CC(OCc2ccccc2)(C(F)(F)F)c2cc(Cl)ccc2N1 (configuration not stated) ?
Found: 177 to 178 °C

Lookup: For CCOC(=O)c1cnn2c1c(OCC)nc1c(C)nn(C)c12 , what is its reported melting point?
Found: 116 to 118 °C

Lookup: Query: melting point; subject: COc1ccc2c(c1)CCN(Cc1c[nH]c3ncccc13)C2
Found: 144 to 146 °C
